Assay: Cytotoxicity against human HEK293-EBNA cells assessed as cell viability at 25 uM by MTS/PMS assay
Format: cell-based
Details: read-out: Activity
Measurement type: viability at 25 µM (%)

INSERT INTO measurements (compound, result_unit, measured_result) VALUES
  ('Cc1ccc(S(=O)(=O)n2cc3c4c2C(=O)c2cn[nH]c2C4=NCC3)cc1', '%', 93),
  ('Cc1ccc(S(=O)(=O)n2ccc3c2C(=O)c2[nH]c(C(=O)c4ccccc4)c(C(=O)c4ccccc4)c2C3=O)cc1', '%', 111),
  ('Cc1ccc(S(=O)(=O)n2cc3c4c2C(=O)c2[nH]nc(-c5ccccc5)c2C4=NCC3)cc1', '%', 78),
  ('Cc1ccc(S(=O)(=O)n2cc3c4c2C(=O)c2[nH]nc(N5C(=O)C(O)c6ccccc65)c2C4=NCC3)cc1 (configuration not stated)', '%', 31),
  ('Cc1ccc(S(=O)(=O)n2ccc3c2C(=O)c2c4c(cn2S(=O)(=O)c2ccc(C)cc2)CCN=C34)cc1', '%', 67),
  ('Cc1ccc(S(=O)(=O)n2ccc3c2C(=O)c2[nH]cc4c2C3=NCC4)cc1', '%', 115),
  ('Cc1ccc(S(=O)(=O)n2cc3c4c2C(=O)c2c(cnn2C)C4=NCC3)cc1', '%', 78);

###

inhibition values by entry
Biological target: Tryptophan 2,3-dioxygenase (Homo sapiens)
Experiment: Inhibition of human TDO expressed in HEK293-EBNA cells assessed as reduction in kynurenine formation using tryptophan as substrate at 3.12 uM incubated for 24 hrs by HPLC analysis relative to control
Assay type: cell-based
Measurement type: inhibition (%)

INSERT INTO results (compound, measurement_type, measured_result) VALUES
  ('Cc1ccc(S(=O)(=O)n2cc3c4c2C(=O)c2n[nH]cc2C4=NCC3)cc1', 'inhibition', 12),
  ('Cc1ccc(S(=O)(=O)n2ccc3c2C(=O)c2[nH]cc4c2C3=NCC4)cc1', 'inhibition', -7),
  ('Cc1ccc(S(=O)(=O)n2cc3c4c2C(=O)c2[nH]nc(N5C(=O)C(O)c6ccccc65)c2C4=NCC3)cc1 (stereo unspecified)', 'inhibition', -7),
  ('Cc1ccc(S(=O)(=O)n2cc3c4c2C(=O)c2c(-c5ccccc5)n[nH]c2C4=NCC3)cc1', 'inhibition', 10),
  ('Cc1ccc(S(=O)(=O)n2ccc3c2C(=O)c2[nH]c(C(=O)c4c[nH]c5ccccc45)c(C(=O)c4c[nH]c5ccccc45)c2C3=O)cc1', 'inhibition', -1),
  ('O=C1c2[nH]cc3c2C(=NCC3)c2c(-c3ccccc3)n[nH]c21', 'inhibition', 3);
